Target: Menin-MLL (Homo sapiens)
Construct: His-Menin (M1-L615 end); purchased BIORTUS BP9210
Sequence (O00255 1-615 isoform O00255-1): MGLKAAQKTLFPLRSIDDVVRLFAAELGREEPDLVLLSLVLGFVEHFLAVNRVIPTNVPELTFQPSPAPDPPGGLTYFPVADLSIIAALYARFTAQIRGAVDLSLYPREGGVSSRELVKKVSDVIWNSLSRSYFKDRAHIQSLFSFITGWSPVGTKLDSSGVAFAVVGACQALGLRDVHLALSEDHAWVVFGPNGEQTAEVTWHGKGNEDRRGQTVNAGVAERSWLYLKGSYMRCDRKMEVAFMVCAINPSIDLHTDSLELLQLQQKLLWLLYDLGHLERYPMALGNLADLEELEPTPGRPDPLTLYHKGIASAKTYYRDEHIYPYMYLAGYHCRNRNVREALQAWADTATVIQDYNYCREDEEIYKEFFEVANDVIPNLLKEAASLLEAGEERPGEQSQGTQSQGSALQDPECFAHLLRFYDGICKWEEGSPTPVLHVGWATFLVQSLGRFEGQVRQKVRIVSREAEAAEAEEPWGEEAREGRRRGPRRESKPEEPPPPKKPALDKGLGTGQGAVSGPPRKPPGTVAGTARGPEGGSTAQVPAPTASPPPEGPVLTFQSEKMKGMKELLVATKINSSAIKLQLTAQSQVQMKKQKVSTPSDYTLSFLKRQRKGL
Assay: Inhibitory activity against Menin-MLL binding (fluorescence polarization)
Conditions: fluorescence polarization; 150 nM His-Menin, 15 nM FITC-MLL; 25°C for 60 min; read-out: Menin-MLL IC50
Give pIC50 for every item shown.
One number for each entry, as −log10 of the molar value.

Worked examples follow.
sampleSmiles: CCN(C(=O)c1cc(F)ccc1-c1cc(N2CCN(CCc3ccc(-c4cc(OC)c(OC)nn4)cc3)CC2)cn2c(C)ncc12)C(C)C
pIC50: 7.03
--
sampleSmiles: Cc1nc(F)c2c(-c3ccc(F)cc3C(=O)N3CCOC[C@H]3C)cc(C3CN(CC4CCN(C(=O)CC#N)CC4)C3)cn12
pIC50: 7.62
--
sampleSmiles: CCN(C(=O)c1cc(F)ccc1-c1cc(C2CN([C@@H](CCCN3CCN(C(=O)OC(C)(C)C)CC3)C(C)C)C2)cn2c(C)ncc12)C(C)C
pIC50: 7.10
--
sampleSmiles: CCN(C(=O)c1cc(F)ccc1-c1cc(C2(F)CN(C(=O)[C@H]3N[C@@H]4CC[C@H]3C4)C2)cn2cncc12)C(C)C
pIC50: 6.77

Next compound, pIC50 to be filled in.
For "CC(=O)N1CCC([C@H](C)N2CC(c3cc(-c4ccc(F)cc4C(=O)N4CCOC[C@H]4C)c4c(F)nc(C)n4c3)C2)CC1" , what is its reported pIC50? 7.86
